measurement-target: CCK-A (Rattus norvegicus, UniProt P30551)
Construct: CCK-A receptors prepared from the cell membranes of rat pancreas; from tissue; host or cells: rat pancreas membranes (male rats, Japan Laboratory Animals)
procedure-details: Peripheral receptor (CCK-A) binding experiment, [^3 H]-CCK-8 binding inhibition
test-conditions: ratio of IC50 values CCK-B/CCK-A (selectivity for CCK-A); 60 min
Description: Peripheral Receptor (CCK-A) and Central Receptor (CCK-B) Binding Experiment […] A 1 ml aliquot of the homogenate was incubated for 60 minutes at 25° C. in the presence of 0.2 nM [^3 H]-CCK-8 and the test compound, in the presence of vehicle only (for measurement of 100% binding), or in the presence of 1 μM cold CCK-8 (for measurement of non-specific binding). […] Next, the glass filter was placed in Aquasol-2 followed by assay of radioactivity with a liquid scintillation counter. […]
Entries annotated with measured CCK-B/CCK-A
Number only, no unit.

The examples below pair each entry with its known result.
> print(dat)
                                   compound                        measurement.target  observed.value
1  CCCCCN(CCCOC)C(=O)C(CCC(=O)O)NC(=O)c1ccc(Cl)c(Cl)c1 (stereo not drawn) [CR1505, Loxiglumide, reference compound]  CCK-A (Rattus norvegicus, UniProt P30551)              16
2  O=C(N[C@@H](CCSc1ncccc1C(=O)O)C(=O)N1CCN(C(c2ccccc2)c2ccccc2)CC1)c1cc2ccccc2[nH]1  CCK-A (Rattus norvegicus, UniProt P30551)              57
3  COc1ccc2[nH]c(C(=O)N[C@@H](CSc3ncccc3C(=O)O)C(=O)N3CCN(C(c4ccccc4)c4ccccc4)CC3)cc2c1  CCK-A (Rattus norvegicus, UniProt P30551)             419
4  O=C(N[C@@H](CSc1nccnc1C(=O)O)C(=O)N1CCN(C(c2ccccc2)c2ccccc2)CC1)c1cc2ccccc2[nH]1  CCK-A (Rattus norvegicus, UniProt P30551)              23
5  O=C(N[C@@H](CSc1ncccc1C(=O)O)C(=O)N1CCN(C(c2ccccc2)c2ccccc2)CC1)c1cc2cc(O)ccc2[nH]1  CCK-A (Rattus norvegicus, UniProt P30551)            8400

In the following, a different compound is considered.
Summary line: O=C(N[C@@H](CSc1ncccc1C(=O)O)C(=O)N1CCN(C2c3ccccc3CCc3ccccc32)CC1)c1cc2ccccc2[nH]1 , CCK-A (Rattus norvegicus, UniProt P30551), reported CCK-B/CCK-A = 7111

###

measurement-target: CCK-A (Rattus norvegicus, UniProt P30551)
Construct: CCK-A receptors prepared from the cell membranes of rat pancreas; from tissue; host or cells: rat pancreas membranes (male rats, Japan Laboratory Animals)
procedure-details: Peripheral receptor (CCK-A) binding experiment, [^3 H]-CCK-8 binding inhibition
test-conditions: rat pancreas homogenate, 0.2 nM [^3 H]-CCK-8, 60 minutes at 25° C; read-out: CCK-A IC50
Entries annotated with measured IC50
Express the result in nM but write the number alone.

> print(dat)
                                   compound  reported.metric  unit.descriptor  observed.value
1  COc1ccc(C(c2ccc(OC)cc2)N2CCN(C(=O)[C@H](CSc3ncccc3C(=O)O)NC(=O)c3cc4ccccc4[nH]3)CC2)cc1 [Compound 7-4]             IC50               nM             800

Query O=C(N[C@@H](CSc1ncccc1C(=O)O)C(=O)N1CCC(C(c2ccccc2)c2ccccc2)CC1)c1cc2cc(Cl)ccc2[nH]1 [Compound 20-2] yields IC50 of 60

Query O=C(N[C@@H](CSc1ncccc1C(=O)O)C(=O)N1CCN(C(c2ccccn2)c2ccccn2)CC1)c1cc2ccccc2[nH]1 [Compound 8-5] yields IC50 of 50

Query COc1ccc2[nH]c(C(=O)N[C@@H](CSc3ncccc3C(=O)O)C(=O)N3CCN(C(c4ccccc4)c4ccccc4)CC3)cc2c1 [Compound 6-2] yields IC50 of 43

Query O=C(N[C@@H](CCSc1ncccc1C(=O)O)C(=O)N1CCN(C(c2ccccc2)c2ccccc2)CC1)c1cc2ccccc2[nH]1 [Compound 25-7] yields IC50 of 210

Query O=C(N[C@@H](CSc1ncccc1P(=O)(O)O)C(=O)N1CCN(C(c2ccccc2)c2ccccc2)CC1)c1cc2ccccc2[nH]1 [Compound 22-4] yields IC50 of 20

###

measurement-target: CCK-A (Rattus norvegicus, UniProt P30551)
Construct: CCK-A receptors prepared from the cell membranes of rat pancreas; from tissue; host or cells: rat pancreas membranes (male rats, Japan Laboratory Animals)
procedure-details: Peripheral receptor (CCK-A) binding experiment, [^3 H]-CCK-8 binding inhibition
test-conditions: ratio of IC50 values CCK-B/CCK-A (selectivity for CCK-A); 60 min
Returns one of 1 or 0; 1 when CCK-B/CCK-A is >= 2000.

// known answers, use as guide
> print(dat)
                                smiles.text  answer.label
1  CCCCC(CCCC)N1CCN(C(=O)[C@H](CSc2ncccc2C(=O)O)NC(=O)c2cc3ccccc3[nH]2)CC1             0
2  O=C(N[C@@H](CCn1nncc1C(=O)O)C(=O)N1CCN(C(c2ccccc2)c2ccccc2)CC1)c1cc2ccccc2[nH]1             0
3  O=C(N[C@@H](CSc1ncccc1C(=O)O)C(=O)N1CCN(C(c2ccc(F)cc2)c2ccc(F)cc2)CC1)c1cc2ccccc2[nH]1             1

Does the reported CCK-B/CCK-A for O=C(N[C@@H](CSc1ncccc1P(=O)(O)O)C(=O)N1CCN(C(c2ccccc2)c2ccccc2)CC1)c1cc2ccccc2[nH]1 fall at or above the 2000 mark?
1

Does the reported CCK-B/CCK-A for O=C(N[C@@H](CSc1ncccc1C(=O)O)C(=O)N1CCC(C(c2ccccc2)c2ccccc2)CC1)c1cc2cc(Cl)ccc2[nH]1 fall at or above the 2000 mark?
1

Does the reported CCK-B/CCK-A for O=C(N[C@@H](CSc1ncccc1C(=O)O)C(=O)N1CCC(C(c2ccccc2)c2ccccc2)CC1)c1cc2ccccc2[nH]1 fall at or above the 2000 mark?
1

###

measurement-target: CCK-B (Rattus norvegicus)
Construct: CCK-B receptors originating in the cell membrane of rat brain cells
Sequence (P30553 whole entry): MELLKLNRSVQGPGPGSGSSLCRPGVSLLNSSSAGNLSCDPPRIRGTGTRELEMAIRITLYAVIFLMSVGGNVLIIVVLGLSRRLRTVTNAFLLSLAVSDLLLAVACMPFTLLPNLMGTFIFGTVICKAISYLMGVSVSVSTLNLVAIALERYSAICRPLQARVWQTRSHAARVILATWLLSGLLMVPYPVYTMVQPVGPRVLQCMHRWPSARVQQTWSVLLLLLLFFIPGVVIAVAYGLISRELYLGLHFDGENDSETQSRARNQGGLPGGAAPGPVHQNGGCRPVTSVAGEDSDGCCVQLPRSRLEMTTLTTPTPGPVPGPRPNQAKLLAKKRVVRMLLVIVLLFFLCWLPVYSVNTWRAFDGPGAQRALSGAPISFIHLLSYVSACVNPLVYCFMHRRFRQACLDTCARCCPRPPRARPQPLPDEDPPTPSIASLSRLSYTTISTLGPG
procedure-details: Central receptor (CCK-B) binding experiment, [^3 H]-CCK-8 binding inhibition
test-conditions: rat cerebrum homogenate, 0.2 nM [^3 H]-CCK-8, 60 minutes at 25° C
Description: Peripheral Receptor (CCK-A) and Central Receptor (CCK-B) Binding Experiment […] A 1 ml aliquot of the homogenate was incubated for 60 minutes at 25° C. in the presence of 0.2 nM [^3 H]-CCK-8 and the test compound, in the presence of vehicle only (for measurement of 100% binding), or in the presence of 1 μM cold CCK-8 (for measurement of non-specific binding). […] Next, the glass filter was placed in Aquasol-2 followed by assay of radioactivity with a liquid scintillation counter. […]
Would you mind sorting the entries by IC50 according to these classes? low band = under 10 µM, middle band = from 10 µM up to 40 µM, high band = 40 µM and over

// known answers, use as guide
> print(dat)
                                smiles.text  answer.label
1  O=C(O)c1cn(CCC[C@H](NC(=O)c2cc3ccccc3[nH]2)C(=O)N2CCN(C(c3ccccc3)c3ccccc3)CC2)nn1   middle band
2  O=C(N[C@@H](CCSc1ncccc1C(=O)O)C(=O)N1CCN(C(c2ccccc2)c2ccccc2)CC1)c1cc2ccccc2[nH]1   middle band
3  O=C(N[C@@H](CSc1ncccc1C(=O)O)C(=O)N1CCC(C(c2ccccc2)c2ccccc2)CC1)c1cc2ccccc2[nH]1     high band
4  O=C(N[C@@H](Cc1ocnc1C(=O)O)C(=O)N1CCN(C(c2ccccc2)c2ccccc2)CC1)c1cc2ccccc2[nH]1      low band
5  O=C(N[C@@H](CSc1ncccc1C(=O)O)C(=O)N1CCN(C(c2ccccc2)c2ccccc2)CC1)c1cc2ccccc2[nH]1   middle band
6  O=C(N[C@@H](CSc1ncccc1C(=O)O)C(=O)N1CCN(C(c2ccc(F)cc2)c2ccc(F)cc2)CC1)c1cc2ccccc2[nH]1   middle band

Which IC50 band matches O=C(N[C@@H](CSc1ccccc1C(=O)O)C(=O)N1CCN(C(c2ccccc2)c2ccccc2)CC1)c1cc2ccccc2[nH]1 ?
low band

###

measurement-target: CCK-A (Rattus norvegicus, UniProt P30551)
Construct: CCK-A receptors prepared from the cell membranes of rat pancreas; from tissue; host or cells: rat pancreas membranes (male rats, Japan Laboratory Animals)
Sequence (P30551 1-444): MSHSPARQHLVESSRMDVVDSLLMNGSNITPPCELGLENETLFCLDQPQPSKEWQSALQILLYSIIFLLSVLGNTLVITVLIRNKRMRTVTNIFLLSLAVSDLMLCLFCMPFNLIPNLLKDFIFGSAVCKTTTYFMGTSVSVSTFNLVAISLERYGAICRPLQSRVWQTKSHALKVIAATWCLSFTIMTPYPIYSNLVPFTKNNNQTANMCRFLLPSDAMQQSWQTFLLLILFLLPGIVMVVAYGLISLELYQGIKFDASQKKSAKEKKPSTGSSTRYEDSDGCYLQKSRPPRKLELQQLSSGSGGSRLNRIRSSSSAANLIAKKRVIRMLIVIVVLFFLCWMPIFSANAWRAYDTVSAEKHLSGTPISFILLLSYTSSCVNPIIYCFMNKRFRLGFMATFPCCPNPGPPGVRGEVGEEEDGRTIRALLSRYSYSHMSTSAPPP
procedure-details: Peripheral receptor (CCK-A) binding experiment, [^3 H]-CCK-8 binding inhibition
test-conditions: rat pancreas cell membranes; read-out: activity in binding experiment on CCK-A receptors prepared from the cell membranes of rat pancreas
reported-metric: IC50

> print(dat)
                                   molecule                        measurement.target  observed.value
1  O=C(N[C@@H](CSc1ncccc1C(=O)O)C(=O)N1CCN(C2c3ccccc3CCc3ccccc32)CC1)c1cc2ccccc2[nH]1 [Compound 19-5]  CCK-A (Rattus norvegicus, UniProt P30551)            9 nM
2  O=C(N[C@@H](CSc1ncccc1C(=O)O)C(=O)N1CCN(C(c2ccccc2)c2ccccc2)CC1)c1cc2ccccc2[nH]1 [Compound 1-6]  CCK-A (Rattus norvegicus, UniProt P30551)          5.1 nM
3  O=C(N[C@@H](CSc1ncccc1C(=O)O)C(=O)N1CCN(C(c2ccccc2)c2ccccc2)CC1)c1cc2cc(O)ccc2[nH]1 [Compound 12-2]  CCK-A (Rattus norvegicus, UniProt P30551)            5 nM
4  O=C(N[C@@H](CSc1ncccc1C(=O)O)C(=O)N1CCC(C(c2ccccc2)c2ccccc2)CC1)c1cc2ccccc2[nH]1 [Compound 2-6]  CCK-A (Rattus norvegicus, UniProt P30551)          4.3 nM

In the following, a different molecule is considered.
Query O=C(N[C@@H](CSc1ncccc1C(=O)O)C(=O)N1CCN(C(c2ccc(F)cc2)c2ccc(F)cc2)CC1)c1cc2ccccc2[nH]1 [Compound 10-4] yields IC50 of 6 nM

The reported numbers originate from patent US5716958A.
